Each entry below carries its reported IC50.
Biological target: human Dopamine D2L receptor (Homo sapiens)
Construct: expressed in transfected cells; host or cells: CHO cells (membranes)
Sequence (P14416 whole entry): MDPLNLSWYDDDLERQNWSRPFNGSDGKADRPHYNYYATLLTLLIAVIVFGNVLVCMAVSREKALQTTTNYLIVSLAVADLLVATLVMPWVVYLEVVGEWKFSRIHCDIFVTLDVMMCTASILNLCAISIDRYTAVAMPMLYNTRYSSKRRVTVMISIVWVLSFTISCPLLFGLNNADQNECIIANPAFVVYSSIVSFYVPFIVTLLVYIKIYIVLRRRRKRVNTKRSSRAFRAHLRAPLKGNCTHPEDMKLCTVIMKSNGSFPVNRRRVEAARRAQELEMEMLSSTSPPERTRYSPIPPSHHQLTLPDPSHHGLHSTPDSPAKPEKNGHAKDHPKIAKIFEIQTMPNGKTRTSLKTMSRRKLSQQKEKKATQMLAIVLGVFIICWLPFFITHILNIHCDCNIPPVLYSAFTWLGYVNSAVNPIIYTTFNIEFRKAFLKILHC
Assay: In vitro binding affinity for human D2L receptor ([3H]Spiperone)
Conditions: human D2L-transfected CHO cell membranes, [3H]Spiperone; read-out: D2L pIC50 (converted)
Give the quantity in nM, number only.

| COMPOUND | EXPERIMENTAL_VALUE |
| --- | --- |
| CC(C)(C)OCCN1CCN(C[C@H]2C[C@@H]3c4ccccc4Cc4ccc(F)cc4[C@H]3O2)CC1 [Compound 36] | 3.72 |

Could you share which IC50 value was measured for CC(=O)OCCN1CCN(C[C@H]2C[C@@H]3c4ccccc4Cc4ccc(F)cc4[C@H]3O2)CC1 [Compound 5] ?
7.41

Could you share which IC50 value was measured for Fc1ccc2c(c1)[C@H]1O[C@@H](CN3CCCCCC3)C[C@@H]1c1ccccc1C2 [Compound 10] ?
16.2

Could you share which IC50 value was measured for COCCN1CCN(C[C@H]2C[C@@H]3c4ccccc4Cc4ccc(F)cc4[C@H]3O2)CC1 [Compound 35] ?
3.09
